- system-under-test: Serotonin 1 (5-HT1) receptor (Rattus norvegicus, UniProt P28564+P30940+P19327+P28565)
- method-notes: Displacement of binding of [3H]-5-HT to 5-hydroxytryptamine 1 receptor in rat cerebral cortex
- Type: tissue-based
assay-endpoint: Ki

CCN1CCN(c2nc3ccccc3nc2C#N)CC1	> 1000 nM
C=CCN1CCN(c2nc3ccccc3nc2C#N)CC1	> 1000 nM
N#Cc1nc2ccccc2nc1N1CCNCC1	345 nM
CCCN1CCN(c2nc3ccccc3nc2C#N)CC1	> 1000 nM
CN1[C@@H]2CC[C@H]1C[C@@H](OC(=O)c1c[nH]c3ccccc13)C2.Cl	> 1000 nM
